System: L1210 leukemia ip in BDF1 mice, survival T/C
Experiment: NCI In Vivo Anticancer Drug Screen. Data for tumor model L1210 Leukemia (intraperitoneal) in B6D2F1 (BDF1) mice
Settings: endpoint: mean survival time; dose: 100.0 mg/kg/injection; schedule: Q04DX002 (ip); vehicle: saline; higher = longer survival
Inconclusive results and toxic doses are left out.
Value Type: T/C

CCCCCCCCCC(=O)N(CCCC)CCCC ... 95 % of control

// field: T/C; key: [O-][n+]1ccc(-c2ccccc2)cc1 ; value = 107 % of control

// field: T/C; key: CC(=O)CP(=O)(O)O ; value = 97 % of control

// field: T/C; key: CC(F)C(Br)C(=O)O (stereo unspecified) ; value = 90 % of control

// field: T/C; key: COC1C(C)(C)C2(C)CC[N+]1(Cc1ccccc1)C2 (stereo unspecified) ; value = 116 % of control

// field: T/C; key: CCN(CC)CC[n+]1ccccc1 ; value = 93 % of control

// field: T/C; key: CSc1ccc(NC(=O)c2cccc([N+](=O)[O-])c2C(=O)O)cc1 ; value = 106 % of control

// field: T/C; key: CNCCc1ccc(OC)c(OC)c1 ; value = 96 % of control

// field: T/C; key: CCOCCOCCOC(C)Oc1ccc(Cl)cc1 (stereo unspecified) ; value = 96 % of control

// field: T/C; key: CC(=O)C[N+]12CN3CN(CN(C3)C1)C2 ; value = 96 % of control

// field: T/C; key: CN(C)C1CS(=O)(=O)CC1[N+](C)(C)C (stereo unspecified) ; value = 118 % of control

// field: T/C; key: CCC(C=NCCBr)(CCC(=O)OC)CCC(=O)OC ; value = 102 % of control

// field: T/C; key: Cc1cc(Cl)nc(Cl)n1 ; value = 98 % of control

// field: T/C; key: CCN(CC)Cc1ccccc1COC(=O)c1ccc(OC)cc1 ; value = 103 % of control

// field: T/C; key: CCC(Br)C(=O)O (stereo unspecified) ; value = 101 % of control

// field: T/C; key: C[N+]1(CCO)CC[N+](C)(CCO)CC1 (stereo unspecified) ; value = 90 % of control

---

Listed compounds paired with reported T/C
System: L1210 leukemia ip in BDF1 mice, survival T/C
Test: NCI In Vivo Anticancer Drug Screen. Data for tumor model L1210 Leukemia (intraperitoneal) in B6D2F1 (BDF1) mice
Conditions: endpoint: mean survival time; dose: 25.0 mg/kg/injection; schedule: Q01DX009 (ip); vehicle: saline with Tween-80; higher = longer survival
Inconclusive results and toxic doses are left out.

Reference set, count: 3
Cc1nc(Cl)c(C(N)=O)nc1C ... 91 % of control
O=C1CCSC(=O)N1SC(Cl)(Cl)Cl ... 92 % of control
COc1cc2cc[n+](C)c(Cc3ccccc3)c2cc1OC ... 111 % of control

// field: T/C; key: CCC(=S)Nc1ccc(Cl)cc1 ; value = 103 % of control

// field: T/C; key: C1=C\C2CC2CCCC/1 (stereo not given) ; value = 98 % of control

// field: T/C; key: CCN(CC)Cc1cc(Nc2cc(C)nc(Nc3ccc(Cl)c(Cl)c3)n2)ccc1OC ; value = 105 % of control

// field: T/C; key: NC(=O)/C=C/C(N)=O ; value = 91 % of control

// field: T/C; key: Cc1c(N)cccc1N ; value = 108 % of control

// field: T/C; key: COC(=O)c1ccccc1N1C(=O)C=CC1=O ; value = 103 % of control

// field: T/C; key: N#C/C(=C\c1ccc(-c2ccccc2)cc1)c1ccc([N+](=O)[O-])cc1 ; value = 88 % of control

---

Listed compounds paired with reported T/C
System: L1210 leukemia ip in BDF1 mice, survival T/C
Test: NCI In Vivo Anticancer Drug Screen. Data for tumor model L1210 Leukemia (intraperitoneal) in B6D2F1 (BDF1) mice
Conditions: endpoint: mean survival time; dose: 30.0 mg/kg/injection; schedule: Q01DX Z (ip); vehicle: carboxymethylcellulose (CMC); higher = longer survival
Toxic doses and inconclusive results are not listed.

O=C(Nc1ccc(N=C(Nc2ccccc2)c2ccccc2)cc1)c1ccc(C(=O)Nc2ccc(N=C(Nc3ccccc3)c3ccccc3)cc2)cc1 ... 93 % of control
O=C(Nc1ccc(C2=NCCN2)c(Cl)c1)c1ccc(C(=O)Nc2ccc(C3=NCCN3)c(Cl)c2)cc1 ... 120 % of control
COc1ccccc1/C=N\N/C(N)=N\N=C\c1ccccc1OC ... 103 % of control
NC(N)=N/N=C/C(Cl)Cl ... 97 % of control
CCCCCCCCCCCCCCCCNC(=S)N/N=C/C(C)=N/NC(=S)NCCCCCCCCCCCCCCCC ... 107 % of control

// field: T/C; key: NC(N)=N/N=C(\c1ccccc1)C(O)c1ccccc1 (stereo unspecified) ; value = 101 % of control

---

Test system: L1210 leukemia ip in BDF1 mice, survival T/C
Experiment: NCI In Vivo Anticancer Drug Screen. Data for tumor model L1210 Leukemia (intraperitoneal) in B6D2F1 (BDF1) mice
Settings: endpoint: mean survival time; dose: 6.25 mg/kg/injection; schedule: Q01DX009 (ip); vehicle: saline with Tween-80; higher = longer survival
Toxic doses and inconclusive results are not listed.
Listed compounds paired with reported T/C

Reference set, count: 3
COc1cc2c(c(OC)c1OC)-c1ccc(O)c(=O)cc1C(N)CC2 (centres undefined) ... 98 % of control
ClC1=C(Cl)C(Cl)=C(Cl)C1=Cc1ccccc1 ... 107 % of control
Cn1c2nc(=O)n(-c3ccccc3)c(=O)c-2nc2c1CCCC2 ... 110 % of control

Continue with the next compound.
// field: T/C; key: COC(=O)c1ccccc1N1C(=O)C=CC1=O ; value = 97 % of control

---

Tested on: L1210 leukemia ip in BDF1 mice, survival T/C
Assay: NCI In Vivo Anticancer Drug Screen. Data for tumor model L1210 Leukemia (intraperitoneal) in B6D2F1 (BDF1) mice
Conditions: endpoint: mean survival time; dose: 12.5 mg/kg/injection; schedule: Q01DX009 (ip); vehicle: Klucel (hydroxypropylcellulose) (HPC); higher = longer survival
Toxic doses and inconclusive results are not listed.
Value Type: T/C

Reference set, count: 3
CSc1cc(C)[o+]c(C)c1 ... 108 % of control
CC1CN1C1=C(Br)C(=O)C(N2CC2C)=C(Br)C1=O (configuration not stated) ... 90 % of control
OC(CCN1CCCCC1)(c1ccccc1)C1CC2C=CC1C2 (configuration not stated) ... 105 % of control

// field: T/C; key: C=CC[n+]1ccccc1/C=C/c1ccc(OC)c(OC)c1 ; value = 98 % of control

// field: T/C; key: CC(C)CC(C=NCC(CCN(C)C)(CC(C)C)c1cccc2ccccc12)(CCN(C)C)c1cccc2ccccc12 (configuration not stated) ; value = 106 % of control

// field: T/C; key: c1ccc([Se]c2ccccn2)nc1 ; value = 101 % of control

// field: T/C; key: Nc1ccc(CSc2ccc(Cl)cc2)cc1 ; value = 94 % of control

---

System: L1210 leukemia ip in BDF1 mice, survival T/C
Experiment: NCI In Vivo Anticancer Drug Screen. Data for tumor model L1210 Leukemia (intraperitoneal) in B6D2F1 (BDF1) mice
Details: endpoint: mean survival time; dose: 200.0 mg/kg/injection; schedule: Q01DX009 (ip); vehicle: saline; higher = longer survival
Inconclusive results and toxic doses are left out.
Listed compounds paired with reported T/C

Reference set, count: 5
Nc1nc(N)c2nc3c(nc2n1)C(=O)N(c1ccc(C(=O)NC(CCC(=O)O)C(=O)O)cc1)C3 (stereo not drawn) ... 98 % of control
CCCCCC(C1=NC(C)(C)CC(C)O1)c1ccccc1 (stereo not drawn) ... 113 % of control
CCOP(=O)(CC(=O)OC)OCC ... 101 % of control
CCOc1ccn(C2CCOC2=O)c(=O)n1 (stereo not drawn) ... 97 % of control
NC(=NCCO)C(N)=NCCO ... 94 % of control

Continue with the next compound.
// field: T/C; key: C=COCCN(C)C ; value = 93 % of control

---

Test system: L1210 leukemia ip in BDF1 mice, survival T/C
Test: NCI In Vivo Anticancer Drug Screen. Data for tumor model L1210 Leukemia (intraperitoneal) in B6D2F1 (BDF1) mice
Settings: endpoint: mean survival time; dose: 100.0 mg/kg/injection; schedule: Q04DX003 (ip); vehicle: saline with Tween-80; higher = longer survival
Inconclusive results and toxic doses are left out.
Value Type: T/C

Reference set, count: 5
CC(=O)Oc1ccc(C2CC(=O)OC2=O)cc1 (configuration not stated) ... 92 % of control
O=C(O)c1ccccc1C(c1ccccc1)c1ccccc1 ... 98 % of control
S=C(CC(C(=S)N1CCOCC1)N1CCOCC1)N1CCOCC1 (configuration not stated) ... 98 % of control
CSc1ccc(NC(=O)Oc2ccc(C(=O)OCc3ccccc3)cc2)cc1 ... 102 % of control
Cc1cc(NC(=O)Nc2ccccc2C)no1 ... 97 % of control

Continue with the next compound.
// field: T/C; key: COP(=O)(NNc1cc(Cl)ccc1Cl)OC ; value = 104 % of control
